meta.source: patent US20240317871A1

# TARGET UNDER TEST: T1, His-tagged human HVEM (human, UniProt Q92956 39-202, limits assumed)
# T1 construct: Analyte of the BLI assay, 200 nM in PBS; not shown: His tag
# T1 sequence (looked up): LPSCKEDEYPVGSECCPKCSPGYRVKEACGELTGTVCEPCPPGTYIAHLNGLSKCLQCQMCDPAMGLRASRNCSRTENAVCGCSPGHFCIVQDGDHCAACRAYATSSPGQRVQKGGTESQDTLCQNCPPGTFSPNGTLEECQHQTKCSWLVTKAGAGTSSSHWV
# TEST METHOD NOTES: BLI OctetRed96, mAb captured, 200 nM His-HVEM
OUTCOME MEASURE: kon (M⁻¹ s⁻¹)
Numbers only here, please. The scale is M⁻¹ s⁻¹.

Prompt: Note down kon recorded for Ab_050 (H5S19-9A11A) (antibody, V domains shown, also called Ab_50) VH: QVQLKQSGPGLVQPSQSLSITCTVSGFSLTTYGVHWVRQSPGKGLEWLGVIWSGGSTDYNAAFISRLSISKDNSKSQVFFKMNSLQANDTAIYYCARRGYGSPYYYAMDYWGQGTSVTVSS VL: EIVLTQSPALMAASPGEKVTITCSVSSSISSSNLHWYQQKSETSPKPWIYGTSNLASGVPVRFSGSGSGTSYSLTISSMEAEDAATYYCQQWSSYPLTFGAGTKLELK
Response: 114000

Prompt: Give a short answer stating reported kon for Ab_079 (H5S20-22A18A) (antibody, V domains shown, also called Ab_79) VH: EVQLQQSGAELVKPGASVKLSCTASGFNIKDTYMHWVKQRPEQGLEWIGRIDPANGNTKYAPKFQGKATITADTSSNTAYLQLSSLTSEDTAVYYCARSFGNYFDYWGQGTTLTVSS VL: NIVLTQSPASLAVSLGQRATISCRASESVDSYGNSFMHWYQQKPGQPPKLLIYLASNLESGVPARFSGSGSRTDFTLTIDPVEADDAATYYCQQNYADPWTFGGGTKLEIK .
Response: 1.56e+06

Prompt: Give me measured kon, please, for this binder: Ab_043 (H5S15-29A24A) (antibody, V domains shown, also called Ab_43) VH: EVQLQQSGAELVRPGALVKLSCKASGFNIKDDYMHWVKQRPEQGLEWIGWIDPENGNTIYDPKFQGKASITADTSSNTAYLQLSSLTSEDTAVYYCARGYSSSPYWGQGTLVTVSA VL: DIVLTQSPASLAVSLGQRATISCKASQSVDYDGNSYMNWYQQKPRQPPKLLIYAASNLESGIPARFRGSGSGTDFTLNIHPVEEEDAATYYCQQSNEDPFTFGSGTKLEIK
Response: 378000
